Each entry below lists one item and its recorded CC50 at 48 h value.
Assay: Cytotoxicity in TZM-GFP cells (XTT or MTT assay)
Format: cell-based
Settings: human; concentration reducing cellular viability by 50% after 48 h, XTT or MTT assay; TZM-GFP cells

compound | modifier | CC50 at 48 h [µM]
Nc1ncnc2c1c(Cl)cn2[C@H]1CO[C@@H](CO)O1 [Compound 14] | = | 88
Nc1ncnc2c1c(Br)cn2[C@H]1CO[C@@H](CO)O1 [Compound 15] | = | 41.9
Nc1ncnc2c1c(I)cn2[C@H]1CO[C@@H](CO)O1 [Compound 16] | = | 11.9
Nc1ncnc2c1ccn2[C@H]1CO[C@@H](CO)O1 [Compound 12] | > | 100
Nc1ncnc2c1c(F)cn2[C@H]1CO[C@@H](CO)O1 [Compound 13] | > | 100

###

System: EBV
Experiment: Anti-EBV assay: reduction of EBV DNA synthesis (qPCR) in TPA-induced P3HR-1 cells
Conditions: selectivity index = CC50/EC50, P3HR-1 cells
Measured SI (CC50/EC50), EBV values are reported for all entries that follow.

compound | modifier | SI (CC50/EC50), EBV
Nc1ncnc2c1c(Br)cn2[C@H]1CO[C@@H](CO)O1 [Compound 15] | = | 294
C=Cc1cn([C@@H]2CO[C@H](CO)O2)c(=O)[nH]c1=O [L-HDVD, reference compound] | > | 833
Nc1ncnc2c1c(I)cn2[C@H]1CO[C@@H](CO)O1 [Compound 16] | = | 45
Nc1nc(O)c2ncn(COC(CO)CO)c2n1 [GCV, ganciclovir, reference compound] | > | 40
Nc1nc(F)nc2c1ccn2[C@H]1CO[C@@H](CO)O1 [Compound 18] | = | 6
Nc1nc(N)c2ccn([C@H]3CO[C@@H](CO)O3)c2n1 [Compound 17] | > | 8

###

Assay: Cytotoxicity in P3HR-1 cells (XTT or MTT assay)
Format: cell-based
Details: human; concentration reducing cellular viability by 50% after 48 h, XTT or MTT assay; P3HR-1 cells; read-out: CC50 (P3HR-1 Cells)
We label by threshold. Values of CC50 at 48 h strictly beneath 50 µM are condition met. Values of 50 µM and up are condition not met.

molecule | assigned-class
C=Cc1cn([C@@H]2CO[C@H](CO)O2)c(=O)[nH]c1=O [L-HDVD, reference compound] | condition not met
Nc1ncnc2c1c(F)cn2[C@H]1CO[C@@H](CO)O1 | condition not met
Nc1nc(N)c2ccn([C@H]3CO[C@@H](CO)O3)c2n1 | condition not met
Nc1ncnc2c1c(I)cn2[C@H]1CO[C@@H](CO)O1 | condition met
Nc1ncnc2c1c(Cl)cn2[C@H]1CO[C@@H](CO)O1 | condition not met
Nc1ncnc2c1ccn2[C@H]1CO[C@@H](CO)O1 | condition not met
CNc1nc(N)nc2c1ccn2[C@H]1CO[C@@H](CO)O1 | condition met
Nc1nc(F)nc2c1ccn2[C@H]1CO[C@@H](CO)O1 | condition not met

###

Experiment: Cytotoxicity in P3HR-1 cells (XTT or MTT assay)
Format: cell-based
Conditions: human

compound | CC50 at 48 h
Nc1nc(O)c2ncn(COC(CO)CO)c2n1 [GCV, ganciclovir, reference compound] | > 100 µM

###

Test system: HIV-FL
Assay: microbe, parasite or virus in culture
Conditions: read-out: EC50, Antiviral Activity against HIV-FL (in TZM-GFP Cells); 48 hpi, MOI = 0.1, TZM-GFP cells; mean of at least three experiments
observed-property: EC50

molecule | study-system | observed-property | test-value
Cc1[nH]c2ccccc2c1CC(=O)N[C@@H](Cc1ccccc1)C(=O)N(C)c1ccccc1 [PF-74, reference compound] | HIV-FL | EC50 | 600 nM
